TESTED TARGET: OR10/OR7 (Anopheles gambiae, UniProt B5U0U7+Q7QCC7)
Sequence (Q7QCC7 whole entry): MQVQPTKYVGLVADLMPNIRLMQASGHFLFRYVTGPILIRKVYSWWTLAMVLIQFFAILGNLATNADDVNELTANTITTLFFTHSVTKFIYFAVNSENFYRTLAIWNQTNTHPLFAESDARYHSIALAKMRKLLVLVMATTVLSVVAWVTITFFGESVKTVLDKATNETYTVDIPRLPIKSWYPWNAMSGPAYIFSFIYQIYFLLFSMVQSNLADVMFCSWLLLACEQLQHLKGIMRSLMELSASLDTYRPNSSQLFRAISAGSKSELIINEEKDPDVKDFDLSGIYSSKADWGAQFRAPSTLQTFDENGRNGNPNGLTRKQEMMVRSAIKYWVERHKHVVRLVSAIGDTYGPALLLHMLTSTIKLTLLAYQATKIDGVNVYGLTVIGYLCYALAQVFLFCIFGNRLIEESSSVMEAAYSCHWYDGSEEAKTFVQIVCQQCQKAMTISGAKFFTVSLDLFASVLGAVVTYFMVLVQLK
Sequence (B5U0U7 entry or part of it): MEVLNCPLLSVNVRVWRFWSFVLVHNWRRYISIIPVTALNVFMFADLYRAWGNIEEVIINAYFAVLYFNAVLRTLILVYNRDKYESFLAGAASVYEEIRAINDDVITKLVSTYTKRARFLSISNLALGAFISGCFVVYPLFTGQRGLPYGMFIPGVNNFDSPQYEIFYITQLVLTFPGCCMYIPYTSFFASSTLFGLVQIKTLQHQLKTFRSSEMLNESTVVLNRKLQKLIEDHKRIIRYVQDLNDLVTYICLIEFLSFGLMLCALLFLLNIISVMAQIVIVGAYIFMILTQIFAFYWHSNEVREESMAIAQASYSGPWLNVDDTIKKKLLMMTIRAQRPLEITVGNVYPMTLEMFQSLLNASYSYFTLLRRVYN
ASSAY: Ca2+-imaging of stable HEK293T cell line OR10/OR7
Type: cell-based
SETTINGS: Table B; read-out: IC50 OR10
Measured IC50, listed per entry for reference.

{"COMPOUND": "CN(Cc1ccccc1)C(=O)CCC1CCN(C(=O)CCOc2ccccc2)CC1 [RU-0028727]", "TESTED TARGET": "OR10/OR7 (Anopheles gambiae, UniProt B5U0U7+Q7QCC7)", "IC50": "> 1000 nM"}
{"COMPOUND": "CC(C)CN(Cc1nccn1Cc1ccc(Cl)cc1Cl)C(=O)c1ccccc1F [RU-0055322]", "TESTED TARGET": "OR10/OR7 (Anopheles gambiae, UniProt B5U0U7+Q7QCC7)", "IC50": "< 100 nM"}
{"COMPOUND": "COc1ccccc1C(=O)C1CCCN(C(=O)c2cccc(N3CCOCC3)c2)C1 (centres unmarked) [RU-0029350]", "TESTED TARGET": "OR10/OR7 (Anopheles gambiae, UniProt B5U0U7+Q7QCC7)", "IC50": "> 1000 nM"}
{"COMPOUND": "CCn1c(C)c(C(=O)CN(CC2CCCO2)C(=O)C2C[C@H]2c2ccccc2)c(C)c1C(=O)OC (some centres unmarked) [RU-0071273]", "TESTED TARGET": "OR10/OR7 (Anopheles gambiae, UniProt B5U0U7+Q7QCC7)", "IC50": "< 100 nM"}
{"COMPOUND": "CCc1cc(N2CCCC2)nc(SCc2ccc(C(=O)N3CCOCC3)o2)n1 [RU-0047568]", "TESTED TARGET": "OR10/OR7 (Anopheles gambiae, UniProt B5U0U7+Q7QCC7)", "IC50": "< 100 nM"}
{"COMPOUND": "CCc1c(C(=O)NCc2cccnc2)cnn1-c1ccccc1 [RU-0048504]", "TESTED TARGET": "OR10/OR7 (Anopheles gambiae, UniProt B5U0U7+Q7QCC7)", "IC50": "< 100 nM"}
{"COMPOUND": "CCOCCCN(CC(=O)N(Cc1ccc2c(c1)OCO2)Cc1sccc1C)C(=O)NC(C)(C)C [RU-0052340]", "TESTED TARGET": "OR10/OR7 (Anopheles gambiae, UniProt B5U0U7+Q7QCC7)", "IC50": "< 100 nM"}
{"COMPOUND": "Cc1cc(C)c(Cn2ccnc2CN(C(=O)c2ccccc2F)C(C)C)c(C)c1 [RU-0048001]", "TESTED TARGET": "OR10/OR7 (Anopheles gambiae, UniProt B5U0U7+Q7QCC7)", "IC50": "< 100 nM"}

* * *

TESTED TARGET: Or47a/Or83b (Drosophila melanogaster, UniProt P81921+Q9VNB5)
Construct: Full-length cDNAs for mosquito (Anopheles gambiae) odorant receptor (OR1, OR2, OR7, OR8, OR28), and fly (Drosophila melanogaster) odorant receptor (Or47a, Or83b); expressed in transfected cells
Sequence (P81921 whole entry): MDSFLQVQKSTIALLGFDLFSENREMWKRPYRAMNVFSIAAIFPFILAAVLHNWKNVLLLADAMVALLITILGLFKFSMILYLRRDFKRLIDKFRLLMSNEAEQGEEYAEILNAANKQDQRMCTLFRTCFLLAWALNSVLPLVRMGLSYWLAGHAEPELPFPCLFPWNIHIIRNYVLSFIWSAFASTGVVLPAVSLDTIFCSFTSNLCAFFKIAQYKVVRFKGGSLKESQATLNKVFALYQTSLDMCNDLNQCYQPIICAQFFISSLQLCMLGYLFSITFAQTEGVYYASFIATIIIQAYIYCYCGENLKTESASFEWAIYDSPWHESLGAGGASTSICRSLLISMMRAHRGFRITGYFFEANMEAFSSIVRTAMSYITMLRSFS
Sequence (Q9VNB5 whole entry): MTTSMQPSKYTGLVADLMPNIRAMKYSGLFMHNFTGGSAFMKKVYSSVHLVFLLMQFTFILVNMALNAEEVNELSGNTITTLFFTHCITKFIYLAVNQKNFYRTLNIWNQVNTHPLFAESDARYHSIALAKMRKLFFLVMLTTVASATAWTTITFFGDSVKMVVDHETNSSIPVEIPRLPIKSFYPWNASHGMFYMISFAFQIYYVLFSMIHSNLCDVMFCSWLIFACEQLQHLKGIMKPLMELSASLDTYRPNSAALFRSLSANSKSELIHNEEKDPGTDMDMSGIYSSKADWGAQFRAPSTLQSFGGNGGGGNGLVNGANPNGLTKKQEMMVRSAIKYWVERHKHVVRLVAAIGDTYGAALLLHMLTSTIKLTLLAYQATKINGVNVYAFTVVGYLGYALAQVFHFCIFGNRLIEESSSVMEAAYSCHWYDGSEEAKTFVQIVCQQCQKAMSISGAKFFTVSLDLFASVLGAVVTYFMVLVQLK
ASSAY: Ca2+-imaging of stable Flip-In T-Rex cell line Or47a/Or83b
Assay type: cell-based
SETTINGS: compound applied at 4 μM; read-out: Percent Inhibition OR47a OR83b

{"COMPOUND": "Cc1ccc(-c2nnc(SCCCC(=O)N3CCN(C(=O)c4cccc(F)c4)C(C)C3)n2-c2ccc(C)cc2)cc1 (stereo not shown)", "inhibition at 4 µM": "26 to 50%"}
{"COMPOUND": "Cc1c(C(=O)NCc2ccco2)cnn1-c1ccccc1", "inhibition at 4 µM": "26 to 50%"}
{"COMPOUND": "Cc1ccccc1C(=O)N[C@@H]1CCCCC1NC(=O)C1CCN(C(=O)c2ccc(C(C)(C)C)cc2)CC1 (stereo partly shown)", "inhibition at 4 µM": "26 to 50%"}
{"COMPOUND": "O=C(c1ccco1)N(Cc1nccn1Cc1c(F)cccc1Cl)C1CC1", "inhibition at 4 µM": "26 to 50%"}
